B1: library; a variant is named by its letters at N, in order (parent)
chain: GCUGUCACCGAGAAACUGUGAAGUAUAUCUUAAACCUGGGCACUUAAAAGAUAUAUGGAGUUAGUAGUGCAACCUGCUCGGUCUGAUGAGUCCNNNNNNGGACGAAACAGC

variants of: B1; test: normalized RNA/DNA level with ligand (relative to sTRSVctl = 100) (log10 (% of sTRSVctl)); HEK293T; ligand: cyclic di-GMP (c-di-GMP-II aptamer); ligand concentration (+) RNA-Seq: 1 mM; higher = less ribozyme self-cleavage, higher mRNA level; details: reporter: mCherry (pCS4076), ligand present: yes
Would you mind telling me the reported normalized RNA/DNA level with ligand (log10) of each entry?
Numbers only.

Give normalized RNA/DNA level with ligand (log10) for all variants that follow.
1. GCUGUCACCGAGAAACUGUGAAGUAUAUCUUAAACCUGGGCACUUAAAAGAUAUAUGGAGUUAGUAGUGCAACCUGCUCGGUCUGAUGAGUCCGAAGUCGGACGAAACAGC [GAAGUC]
2. GCUGUCACCGAGAAACUGUGAAGUAUAUCUUAAACCUGGGCACUUAAAAGAUAUAUGGAGUUAGUAGUGCAACCUGCUCGGUCUGAUGAGUCCACUAGCGGACGAAACAGC [ACUAGC]
3. GCUGUCACCGAGAAACUGUGAAGUAUAUCUUAAACCUGGGCACUUAAAAGAUAUAUGGAGUUAGUAGUGCAACCUGCUCGGUCUGAUGAGUCCAUCUUAGGACGAAACAGC [AUCUUA]
4. GCUGUCACCGAGAAACUGUGAAGUAUAUCUUAAACCUGGGCACUUAAAAGAUAUAUGGAGUUAGUAGUGCAACCUGCUCGGUCUGAUGAGUCCUUGCUUGGACGAAACAGC [UUGCUU]
5. GCUGUCACCGAGAAACUGUGAAGUAUAUCUUAAACCUGGGCACUUAAAAGAUAUAUGGAGUUAGUAGUGCAACCUGCUCGGUCUGAUGAGUCCCAGGCAGGACGAAACAGC [CAGGCA]
6. GCUGUCACCGAGAAACUGUGAAGUAUAUCUUAAACCUGGGCACUUAAAAGAUAUAUGGAGUUAGUAGUGCAACCUGCUCGGUCUGAUGAGUCCUAUUGCGGACGAAACAGC [UAUUGC]
7. GCUGUCACCGAGAAACUGUGAAGUAUAUCUUAAACCUGGGCACUUAAAAGAUAUAUGGAGUUAGUAGUGCAACCUGCUCGGUCUGAUGAGUCCUUUAGGGGACGAAACAGC [UUUAGG]
8. GCUGUCACCGAGAAACUGUGAAGUAUAUCUUAAACCUGGGCACUUAAAAGAUAUAUGGAGUUAGUAGUGCAACCUGCUCGGUCUGAUGAGUCCGACAACGGACGAAACAGC [GACAAC]

[1.74, 1.77, 1.76, 1.88, 1.71, 1.87, 1.96, 1.82]
